System: proteins in Jurkat cell lysate (total cellular proteome)
test summary: Competition of α-pY antibody binding with Jurkat cell lysate on peptide microarrays
condition notes: from EC50 and Kd α-pY by Cheng-Prusoff equation (Eq. 4); ± standard deviation
Non-standard residues stand in square brackets, D forms with d. Residues, ends and D or L forms follow the SMILES beside them. pY = N[C@@H](Cc1ccc(OP(=O)(O)O)cc1)C(=O)O
attribute measured: Kd (µM)
Respond numerically; units are µM and should not be typed.

Return the recorded Kd value; entry: CSCC[C@H](NC(=O)[C@H](CC(=O)O)NC(=O)[C@H](CC(C)C)NC(=O)[C@@H](N)CS)C(=O)NCC(=O)N[C@@H](CC(=O)O)C(=O)N[C@@H](CCC(=O)O)C(=O)N[C@H](C(=O)N[C@@H](Cc1ccc(OP(=O)(O)O)cc1)C(=O)N[C@@H](CC(=O)O)C(=O)N[C@@H](CC(=O)O)C(=O)N[C@H](C(=O)N[C@@H](CC(=O)O)C(=O)N[C@H](C(=O)N[C@@H](CO)C(=O)N[C@@H](CC(=O)O)C(=O)N[C@@H](Cc1ccccc1)C(N)=O)[C@@H](C)O)C(C)C)C(C)C [FYBpY651] (H-CLDMGDEV[pY]DDVDTSDF-NH2)
12

----------
study target: α-phosphotyrosine antibody (α-pTyr 100)
test summary: Titration of α-pY antibody on peptide microarrays
condition notes: peptide microarray, α-pY antibody 0.06 to 6.66 nM, 3 h at 4 °C, indirect immunofluorescence (Alexa633), bimolecular binding isotherm (Eq. 1); average ± standard deviation, six independent experiments
Procedure: Peptides that correspond to known interaction motifs involved in the formation of protein complexes in T cell signalling were purchased from EMC microcollections (Tübingen, Germany). […] To render this approach quantitative, first the affinities of the α-pY antibody towards the phosphotyrosine motifs of the microarrays were determined. […]
Non-standard residues stand in square brackets, D forms with d. Residues, ends and D or L forms follow the SMILES beside them. pY = N[C@@H](Cc1ccc(OP(=O)(O)O)cc1)C(=O)O
Overview of reported Kd across a group of molecules:
Write the value in pM as a bare number.

CSCC[C@H](NC(=O)[C@@H]1CCCN1C(=O)[C@H](CC(N)=O)NC(=O)[C@H](C)NC(=O)[C@H](CCC(=O)O)NC(=O)[C@@H](NC(=O)[C@H](Cc1ccc(OP(=O)(O)O)cc1)NC(=O)[C@H](Cc1ccccc1)NC(=O)CNC(=O)[C@@H]1CCCN1C(=O)[C@H](CC(N)=O)NC(=O)[C@H](CCCNC(=N)N)NC(=O)CNC(=O)[C@H](CCC(=O)O)NC(=O)[C@@H](N)CS)C(C)C)C(=O)N1CCC[C@H]1C(=O)N[C@H](C(N)=O)[C@@H](C)O [PLCγpY783] (H-CEGRNPGF[pY]VEANPMPT-NH2) = 550
CC(C)C[C@H](NC(=O)[C@H](CC(N)=O)NC(=O)[C@H](CCC(=O)O)NC(=O)[C@H](Cc1ccc(OP(=O)(O)O)cc1)NC(=O)[C@@H](NC(=O)[C@H](CC(=O)O)NC(=O)[C@H](CCC(=O)O)NC(=O)[C@H](CCCCN)NC(=O)[C@H](Cc1c[nH]cn1)NC(=O)[C@H](CCCCN)NC(=O)[C@H](CO)NC(=O)[C@@H](N)CS)C(C)C)C(=O)N[C@@H](Cc1c[nH]cn1)C(=O)N[C@H](C(=O)N[C@@H](CCCCN)C(=O)N[C@@H](CC(N)=O)C(=O)N[C@@H](CCCCN)C(N)=O)[C@@H](C)O [SHP1pY564] (H-CSKHKEDV[pY]ENLHTKNK-NH2) = 890
CC(C)C[C@H](NC(=O)[C@H](CCC(=O)O)NC(=O)[C@H](CCC(=O)O)NC(=O)[C@@H]1CCCN1C(=O)[C@H](CC(=O)O)NC(=O)[C@H](CO)NC(=O)[C@H](Cc1ccc(OP(=O)(O)O)cc1)NC(=O)[C@@H]1CCCN1C(=O)[C@H](CO)NC(=O)[C@H](CCC(=O)O)NC(=O)[C@H](Cc1ccc(O)cc1)NC(=O)[C@@H](NC(=O)[C@@H](N)CS)C(C)C)C(=O)N[C@@H](CCCCN)C(=O)N[C@@H](CC(=O)O)C(N)=O [ZAPpY319] (H-CVYESP[pY]SDPEELKD-NH2) = 600

State its Kd for this molecule: CC[C@H](C)[C@H](NC(=O)CNC(=O)[C@H](CC(=O)O)NC(=O)[C@H](Cc1ccc(OP(=O)(O)O)cc1)NC(=O)[C@@H](NC(=O)[C@H](CC(=O)O)NC(=O)[C@H](CC(=O)O)NC(=O)[C@H](CC(=O)O)NC(=O)[C@@H](N)CS)[C@@H](C)CC)C(=O)N[C@@H](CCC(=O)O)C(=O)N[C@@H](CCC(=O)O)C(=O)N[C@@H](CCC(=O)O)C(=O)N[C@@H](CC(=O)O)C(N)=O [FYBpY625] (H-CDDDI[pY]DGIEEED-NH2)
460

Identify the reported Kd for the following entry. CC(C)[C@H](NC(=O)[C@H](CC(=O)O)NC(=O)[C@H](CC(=O)O)NC(=O)[C@H](Cc1ccc(OP(=O)(O)O)cc1)NC(=O)[C@@H](NC(=O)[C@H](CCC(=O)O)NC(=O)[C@H](CCC(N)=O)NC(=O)[C@H](CC(=O)O)NC(=O)[C@H](CC(=O)O)NC(=O)[C@H](CCC(=O)O)NC(=O)[C@@H](N)CS)C(C)C)C(=O)N[C@@H](C)C(=O)N[C@@H](CCC(=O)O)C(=O)N[C@@H](CCC(N)=O)C(=O)N[C@@H](CC(=O)O)C(N)=O [FYBpY595] (H-CEDDQEV[pY]DDVAEQD-NH2)
770
